Values compiled from ChEMBL document CHEMBL4033732.

Target: CYP1A2 (Homo sapiens, UniProt P05177)
Sequence (P05177 whole entry): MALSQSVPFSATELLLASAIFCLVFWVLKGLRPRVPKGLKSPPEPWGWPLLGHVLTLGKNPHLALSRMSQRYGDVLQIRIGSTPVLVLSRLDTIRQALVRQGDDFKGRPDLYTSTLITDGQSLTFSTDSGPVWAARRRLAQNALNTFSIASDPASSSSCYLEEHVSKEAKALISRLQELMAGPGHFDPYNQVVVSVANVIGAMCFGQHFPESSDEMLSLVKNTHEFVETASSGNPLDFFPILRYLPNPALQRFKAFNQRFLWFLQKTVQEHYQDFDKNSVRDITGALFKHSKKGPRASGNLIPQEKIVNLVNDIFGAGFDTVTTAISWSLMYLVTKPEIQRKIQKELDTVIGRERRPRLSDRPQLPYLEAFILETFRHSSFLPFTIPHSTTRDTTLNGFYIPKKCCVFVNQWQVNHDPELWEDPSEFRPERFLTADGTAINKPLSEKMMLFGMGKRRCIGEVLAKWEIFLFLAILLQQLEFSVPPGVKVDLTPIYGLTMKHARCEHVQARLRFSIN
Test: Inhibition of CYP1A2 in human liver microsomes at 10 uM
Format: ADME
Mark no for inhibition at 10 µM values under 10%, and yes for everything at or above.

input: Could you tell me if the measured inhibition at 10 µM of O=C(c1cc2n(n1)CCCN(Cc1ccc(Cl)c(Cl)c1)C2=O)N1CCCCC1 reaches 10% or more?
output: yes

input: Tell me whether inhibition at 10 µM is at least 10% here: O=C(c1cc2n(n1)CCN(Cc1ccc(Cl)c(Cl)c1)C2=O)N1CCCCC1
output: yes

input: Textbook exercise: given the entry O=C(c1cn2ccn(Cc3ccc(Cl)c(Cl)c3)c(=O)c2n1)N1CCCCC1 , state whether its inhibition at 10 µM is greater than or equal to 10%.
output: no

input: In plain terms: is recorded inhibition at 10 µM at least 10% for CC(C)(C)c1ccc(CN2CCn3nc(C(=O)N4CCCCC4)cc3C2=O)cc1 ?
output: yes

input: Given CC(C)(C)c1ccc(Cn2ccn3nc(C(=O)N4CCCCC4)cc3c2=O)cc1 , state whether its inhibition at 10 µM is at least 10%.
output: no

input: Has CC(C)(C)c1ccc(Cn2ccn3cc(C(=O)N4CCCCC4)nc3c2=O)cc1 a recorded inhibition at 10 µM greater than or equal to 10%?
output: no

input: Would you say CC(C)(C)c1ccc(CN2CC(O)n3nc(C(=O)N4CCCCC4)cc3C2=O)cc1 (centres undefined) shows inhibition at 10 µM at minimum 10%?
output: no

input: Kindly determine if inhibition at 10 µM recorded for O=C(c1cc2c(=O)n(Cc3ccc(Cl)c(Cl)c3)ccn2n1)N1CCCCC1 is above or exactly 10%.
output: no

input: Has O=C(c1cc2n(n1)C(O)CN(Cc1ccc(Cl)c(Cl)c1)C2=O)N1CCCCC1 (centres undefined) a recorded inhibition at 10 µM greater than or equal to 10%?
output: no

* * *

Biological target: CYP2D6 (Homo sapiens)
Sequence (P10635 whole entry): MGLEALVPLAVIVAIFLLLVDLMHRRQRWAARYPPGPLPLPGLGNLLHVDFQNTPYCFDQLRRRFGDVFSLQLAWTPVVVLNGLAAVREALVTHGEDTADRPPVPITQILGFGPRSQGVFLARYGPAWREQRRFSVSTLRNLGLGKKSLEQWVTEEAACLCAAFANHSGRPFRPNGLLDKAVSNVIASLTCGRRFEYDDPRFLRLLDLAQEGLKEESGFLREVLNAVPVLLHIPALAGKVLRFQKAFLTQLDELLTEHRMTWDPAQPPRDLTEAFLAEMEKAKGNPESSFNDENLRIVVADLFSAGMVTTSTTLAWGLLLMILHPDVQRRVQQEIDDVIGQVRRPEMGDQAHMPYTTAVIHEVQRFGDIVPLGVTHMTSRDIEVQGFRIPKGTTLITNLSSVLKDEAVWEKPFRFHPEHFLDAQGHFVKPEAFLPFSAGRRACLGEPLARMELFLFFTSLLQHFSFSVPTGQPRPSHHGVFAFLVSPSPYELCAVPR
Assay: Inhibition of CYP2D6 in human liver microsomes at 10 uM
Assay type: ADME
QUANTITY_MEASURED: inhibition at 10 µM

input: Identify measured inhibition at 10 µM corresponding to O=C(c1cn2ccn(Cc3ccc(Cl)c(Cl)c3)c(=O)c2n1)N1CCCCC1
output: 0%

input: Entry CC(C)(C)c1ccc(Cn2ccn3nc(C(=O)N4CCCCC4)cc3c2=O)cc1 needs its inhibition at 10 µM filled in; supply it.
output: 14%

input: Identify inhibition at 10 µM associated with the molecule O=C(c1cc2n(n1)C(O)CN(Cc1ccc(Cl)c(Cl)c1)C2=O)N1CCCCC1 (centres undefined)
output: 21%

input: Note inhibition at 10 µM for the molecule shown: O=C(c1cc2n(n1)CCN(Cc1ccc(Cl)c(Cl)c1)C2=O)N1CCCCC1
output: 0%

* * *

I'd appreciate it if you could supply logD values for the items below.
Test: Lipophilicity, log D of the compound
Format: physicochemical
Conditions: octanol/water
Form field (numeric): enter value without unit.

input: Provide measured logD value, entry: O=C(c1cn2ccn(Cc3ccc(Cl)c(Cl)c3)c(=O)c2n1)N1CCCCC1
output: 3.6

input: Identify measured logD corresponding to O=C(c1cc2n(n1)CCCN(Cc1ccc(Cl)c(Cl)c1)C2=O)N1CCCCC1
output: 2.1

input: Give me measured logD, please, for this molecule: O=C(c1cc2n(n1)C(O)CN(Cc1ccc(Cl)c(Cl)c1)C2=O)N1CCCCC1 (centres undefined)
output: 3.1

input: Specify reported logD for the molecule shown: CC(C)(C)c1ccc(CN2CC(O)n3nc(C(=O)N4CCCCC4)cc3C2=O)cc1 (centres undefined)
output: 3

input: Please give the documented logD of CC(C)(C)c1ccc(CN2CCn3nc(C(=O)N4CCCCC4)cc3C2=O)cc1
output: 4

input: Please report the measured logD for CC(C)(C)c1ccc(Cn2ccn3nc(C(=O)N4CCCCC4)cc3c2=O)cc1
output: 3.7

input: Supply reported logD belonging to this molecule: O=C(c1cc2c(=O)n(Cc3ccc(Cl)c(Cl)c3)ccn2n1)N1CCCCC1
output: 3.5

input: For the molecule CC(C)(C)c1ccc(Cn2ccn3cc(C(=O)N4CCCCC4)nc3c2=O)cc1 , give its reported logD.
output: 4.1

input: Tell me logD reported for O=C(c1cc2n(n1)CCN(Cc1ccc(Cl)c(Cl)c1)C2=O)N1CCCCC1
output: 3.8
